# Target: YAP-WW1-WW2 tandem construct (human YAP residues 165–271) (Homo sapiens, UniProt P46937)
# Construct: residues 165–271 for tandem construct (YAP-WW1-WW2); poly-histidine (N, cleaved yes); GST (N, cleaved yes); made in house; host or cells: E. coli BL21 (DE3)
# Sequence (P46937 165-271): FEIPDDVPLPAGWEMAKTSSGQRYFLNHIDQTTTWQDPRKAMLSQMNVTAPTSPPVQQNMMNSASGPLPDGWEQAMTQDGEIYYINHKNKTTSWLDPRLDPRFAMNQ
# Experimental details: Isothermal titration calorimetry of peptide ligands with the YAP-WW1-WW2 tandem
# Assay type: binding
# Condition label: ITC, 25°C, pH 7.0, model of two different sets of sites, n fixed to 1 each, first set of sites (first line)
Endpoint: Kd (µM)
Express the result in µM but write the number alone.

Ask | Entry Ac-YQGPPPPYPKHL-NH2 [LATS1-b] , system YAP-WW1-WW2 tandem construct (human YAP residues 165–271) (Homo sapiens, UniProt P46937): what Kd was measured?
Reply | 4.8
